molecular target: GAK (Homo sapiens, UniProt O14976); construct: purchased DiscoverX Corp. (ScanMAX Kinase analysis panel, service); experiment: ScanMAX Kinase analysis panel, GAK; format: binding; details: 1 μM in DMSO; <35% considered inhibitory; read-out: percent control (% control), GAK
Sequence (O14976 whole entry): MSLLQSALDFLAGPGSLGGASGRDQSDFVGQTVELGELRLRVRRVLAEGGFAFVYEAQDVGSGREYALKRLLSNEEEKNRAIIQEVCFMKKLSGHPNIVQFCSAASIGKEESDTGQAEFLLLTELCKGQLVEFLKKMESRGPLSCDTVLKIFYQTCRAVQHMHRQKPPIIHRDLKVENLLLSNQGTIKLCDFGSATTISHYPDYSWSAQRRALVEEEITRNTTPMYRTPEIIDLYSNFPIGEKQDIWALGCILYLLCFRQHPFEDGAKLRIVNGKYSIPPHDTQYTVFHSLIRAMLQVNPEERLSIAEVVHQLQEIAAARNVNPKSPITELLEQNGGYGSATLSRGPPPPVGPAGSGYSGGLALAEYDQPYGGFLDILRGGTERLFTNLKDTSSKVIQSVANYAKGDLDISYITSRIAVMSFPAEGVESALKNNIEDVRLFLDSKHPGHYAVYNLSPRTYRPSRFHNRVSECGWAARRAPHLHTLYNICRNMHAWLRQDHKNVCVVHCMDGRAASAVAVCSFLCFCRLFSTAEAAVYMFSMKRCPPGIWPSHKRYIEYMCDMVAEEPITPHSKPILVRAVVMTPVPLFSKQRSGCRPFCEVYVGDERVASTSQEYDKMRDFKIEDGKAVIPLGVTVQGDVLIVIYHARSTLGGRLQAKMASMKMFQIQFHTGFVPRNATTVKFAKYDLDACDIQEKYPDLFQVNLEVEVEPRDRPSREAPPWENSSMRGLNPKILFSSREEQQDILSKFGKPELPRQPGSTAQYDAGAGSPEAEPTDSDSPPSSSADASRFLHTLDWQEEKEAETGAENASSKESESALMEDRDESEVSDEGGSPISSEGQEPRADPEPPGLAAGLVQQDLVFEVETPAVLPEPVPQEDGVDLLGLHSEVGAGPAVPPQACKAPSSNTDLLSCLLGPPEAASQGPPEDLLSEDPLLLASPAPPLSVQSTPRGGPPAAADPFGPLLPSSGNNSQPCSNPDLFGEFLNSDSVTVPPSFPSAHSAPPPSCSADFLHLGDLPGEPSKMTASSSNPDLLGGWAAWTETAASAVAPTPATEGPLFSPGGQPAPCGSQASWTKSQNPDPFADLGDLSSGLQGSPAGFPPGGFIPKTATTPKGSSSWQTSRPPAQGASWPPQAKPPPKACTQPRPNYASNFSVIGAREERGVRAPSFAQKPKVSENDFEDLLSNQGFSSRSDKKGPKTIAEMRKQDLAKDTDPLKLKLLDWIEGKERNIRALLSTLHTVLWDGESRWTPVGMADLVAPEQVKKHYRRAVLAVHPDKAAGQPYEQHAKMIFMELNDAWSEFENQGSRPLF
Reported remaining binding at 1 µM is given for each of the following compounds.
# output: bare number, implied unit %

Please review the following examples before continuing.
compound: CCNc1nc(Nc2ccc(S(=O)(=O)N3CCC(N4CCOCC4)CC3)cc2OC)nc2[nH]cc(C(F)(F)F)c12 [Example 158, 2,2,2-trifluoroacetate]
endpoint-value: 21
--
compound: CNc1nc(Nc2ccc(S(=O)(=O)N3CCC(N4CCOCC4)CC3)cc2OC)nc2[nH]cc(C(F)(F)F)c12 [Example 157, 2,2,2-trifluoroacetate]
endpoint-value: 4.2
--
compound: O=C(c1ccc(Nc2nc(C3CC3)c3c(C(F)(F)F)c[nH]c3n2)c2c1OCCO2)N1CCC(N2CCOCC2)CC1 [Example 228]
endpoint-value: 3
--
compound: CCCNc1nc(Nc2ccc(S(=O)(=O)N3CCC(N4CCOCC4)CC3)cc2OC)nc2[nH]cc(C(F)(F)F)c12 [Example 161]
endpoint-value: 4

Request: For CNc1nc(Nc2ccc(P3(=O)CCN(C4CC4)CC3)cc2OC)nc2[nH]cc(C(F)(F)F)c12 [Example 411] , what is its reported remaining binding at 1 µM?
Result: 2.4

Request: Requested read-out: remaining binding at 1 µM. Entry: C=CCNc1nc(Nc2ccc(S(=O)(=O)N3CCC(N4CCOCC4)CC3)cc2OC)nc2[nH]cc(C#N)c12 [Example 361]
Result: 2.7

Request: Give its remaining binding at 1 µM value. Item: CNc1nc(Nc2ccc(C(=O)N3CCC(N4CCOCC4)CC3)c3c2OCCO3)nc2[nH]cc(C(F)(F)F)c12 [Example 238]
Result: 3.1

* * *

For reference, IC50 measured on human GST-DYRK1A (Homo sapiens, UniProt Q13627):

compound: CCCCNc1nc(Nc2ccc(S(=O)(=O)N3CCOCC3)cc2OC)nc2[nH]cc(C(F)(F)F)c12 [Example 207]
measure: IC50
endpoint-value: 0.301 to 1 µM
--
compound: CNc1nc(Nc2cc(F)c(S(=O)(=O)N3CCC(N4CCOCC4)CC3)cc2OC)nc2[nH]cc(C(F)(F)F)c12 [Example 231]
measure: IC50
endpoint-value: 0.101 to 0.3 µM
--
compound: COc1cc(S(=O)(=O)N2CCC(N3CCOCC3)CC2)ccc1Nc1nc(NC2CCCC2)c2c(C(F)(F)F)c[nH]c2n1 [Example 187]
measure: IC50
endpoint-value: 0.301 to 1 µM

Request: Param item = COc1cc(P2(=O)CCN(C3COC3)CC2)ccc1Nc1nc(NCC2CCCC2)c2c(C#N)c[nH]c2n1 [Example 309] ; retrieve measured IC50.
Result: 0.301 to 1 µM

Request: Need IC50, item CC(C)Nc1nc(Nc2ccc(C(=O)N3CCC(N4CCOCC4)CC3)c3c2OCC3)nc2[nH]cc(C(F)(F)F)c12 [Example 450]
Result: < 0.1 µM

Request: Data request, read-out IC50, for COCC(C)(C)Nc1nc(Nc2ccc(S(=O)(=O)N3CCOCC3)cc2OC)nc2[nH]ccc12 [Example 34]
Result: 0.301 to 1 µM

* * *

pIC50: −log10 of the molar value.
UniProtKB P49759 data, read-out pIC50
Sequence (P49759 129-484 limits assumed): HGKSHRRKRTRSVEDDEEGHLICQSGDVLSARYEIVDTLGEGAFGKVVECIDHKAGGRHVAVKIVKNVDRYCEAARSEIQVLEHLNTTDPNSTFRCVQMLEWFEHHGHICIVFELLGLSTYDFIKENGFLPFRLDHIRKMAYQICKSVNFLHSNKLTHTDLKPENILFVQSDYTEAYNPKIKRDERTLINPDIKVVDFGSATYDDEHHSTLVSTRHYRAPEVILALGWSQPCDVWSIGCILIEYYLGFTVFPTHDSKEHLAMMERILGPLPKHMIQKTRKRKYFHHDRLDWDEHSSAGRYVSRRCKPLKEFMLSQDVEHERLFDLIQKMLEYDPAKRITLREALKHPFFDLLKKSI

Reference set, count: 5
molecule: CNc1nc(Nc2ccc(P3(=O)CCN(C4CC4)CC3)cc2OC)nc2[nH]cc(C#N)c12
assay-system: UniProtKB P49759
pIC50: 6.00 to 6.52

molecule: COc1cc(S(C)(=O)=O)ccc1Nc1nc(NC2CCCC2)c2c(C#N)c[nH]c2n1
assay-system: UniProtKB P49759
pIC50: 6.00 to 6.52

molecule: CC(C)Nc1nc(Nc2ccc(C(=O)N3CCN(C4COC4)CC3)c3c2OCCO3)nc2[nH]cc(C(F)(F)F)c12
assay-system: UniProtKB P49759
pIC50: > 7.00

molecule: O=C(c1ccc(Nc2nc(NC3CCCC3)c3c(C(F)(F)F)c[nH]c3n2)c2c1CCO2)N1CCC(N2CCOCC2)CC1
assay-system: UniProtKB P49759
pIC50: 6.00 to 6.52

molecule: CC(C)Nc1nc(Nc2ccc(C(=O)N3CCOCC3)c3c2OCCO3)nc2[nH]cc(C#N)c12
assay-system: UniProtKB P49759
pIC50: > 7.00

Request: Form field - read-out: pIC50; system: UniProtKB P49759; submitted item: COc1cc(S(C)(=O)=O)ccc1Nc1nc(N[C@@H]2CCOC2)c2cc[nH]c2n1
Result: 6.00 to 6.52

Request: Under UniProtKB P49759: pIC50 value of COc1cc(S(=O)(=O)N2CCOCC2)ccc1Nc1nc(NCC(C)C)c2c(C(F)(F)F)c[nH]c2n1 ?
Result: 6.00 to 6.52

Request: Provide the documented pIC50 with UniProtKB P49759 as the system for CC[C@@H](C)Nc1nc(Nc2ccc(S(C)(=O)=O)cc2OC)nc2[nH]cc(C(F)(F)F)c12
Result: 6.00 to 6.52

* * *

molecular target: LRRK2 (G2019S) (Homo sapiens, UniProt Q5S007, G2019S); assay: LRRK2 G2019S enzyme inhibition, ADP-Glo kinase assay; assay type: biochemical; set-up: purchased SignalChem L10-12GG; conditions: ATP 25 μM
Sequence (Q5S007 970-2527 G2019S limits assumed): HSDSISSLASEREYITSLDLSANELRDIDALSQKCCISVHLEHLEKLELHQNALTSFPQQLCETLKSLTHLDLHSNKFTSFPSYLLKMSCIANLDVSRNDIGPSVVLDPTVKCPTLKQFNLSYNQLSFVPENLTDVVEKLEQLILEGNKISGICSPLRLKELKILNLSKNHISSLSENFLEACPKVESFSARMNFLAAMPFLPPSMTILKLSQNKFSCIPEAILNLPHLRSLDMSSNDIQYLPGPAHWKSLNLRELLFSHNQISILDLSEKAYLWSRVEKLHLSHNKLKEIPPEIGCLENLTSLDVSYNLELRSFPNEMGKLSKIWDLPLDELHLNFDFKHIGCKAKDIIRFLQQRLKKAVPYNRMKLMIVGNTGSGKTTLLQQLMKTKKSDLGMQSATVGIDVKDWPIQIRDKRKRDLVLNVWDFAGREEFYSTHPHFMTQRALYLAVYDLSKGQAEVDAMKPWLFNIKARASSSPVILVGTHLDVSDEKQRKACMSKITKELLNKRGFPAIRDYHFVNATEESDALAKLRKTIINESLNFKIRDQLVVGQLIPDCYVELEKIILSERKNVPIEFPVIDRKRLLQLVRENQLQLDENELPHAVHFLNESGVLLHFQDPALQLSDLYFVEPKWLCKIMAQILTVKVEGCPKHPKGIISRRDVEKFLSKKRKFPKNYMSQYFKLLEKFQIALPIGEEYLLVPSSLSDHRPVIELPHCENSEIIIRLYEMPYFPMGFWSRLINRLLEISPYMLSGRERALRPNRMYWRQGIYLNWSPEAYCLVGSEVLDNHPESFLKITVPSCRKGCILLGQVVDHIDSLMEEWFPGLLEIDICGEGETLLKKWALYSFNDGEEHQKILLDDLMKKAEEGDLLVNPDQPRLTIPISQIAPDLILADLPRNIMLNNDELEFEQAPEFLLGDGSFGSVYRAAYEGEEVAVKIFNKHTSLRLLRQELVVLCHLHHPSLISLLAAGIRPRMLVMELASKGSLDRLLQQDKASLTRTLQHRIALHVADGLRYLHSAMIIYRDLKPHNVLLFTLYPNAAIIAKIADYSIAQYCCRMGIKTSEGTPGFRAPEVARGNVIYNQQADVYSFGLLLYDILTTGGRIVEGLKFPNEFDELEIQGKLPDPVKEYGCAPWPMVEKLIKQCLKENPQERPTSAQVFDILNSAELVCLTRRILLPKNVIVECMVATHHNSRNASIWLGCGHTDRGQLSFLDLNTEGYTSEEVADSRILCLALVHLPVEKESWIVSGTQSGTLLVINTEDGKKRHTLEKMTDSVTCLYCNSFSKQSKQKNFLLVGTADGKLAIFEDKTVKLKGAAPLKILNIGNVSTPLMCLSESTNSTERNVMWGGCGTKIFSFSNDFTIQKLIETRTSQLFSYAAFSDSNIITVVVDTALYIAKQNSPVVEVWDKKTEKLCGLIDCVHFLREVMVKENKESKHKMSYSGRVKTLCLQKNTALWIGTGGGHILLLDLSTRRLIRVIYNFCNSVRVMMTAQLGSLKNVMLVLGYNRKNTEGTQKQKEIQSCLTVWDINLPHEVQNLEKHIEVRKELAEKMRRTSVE
Overview of reported IC50 across a group of compounds:

compound: COc1cc(S(C)(=O)=O)ccc1Nc1nc(NCC2CC2)c2cc[nH]c2n1
assay-system: LRRK2 (G2019S) (Homo sapiens, UniProt Q5S007, G2019S)
endpoint-value: < 100 nM

Request: If you can, please state the reported IC50 value of CC(C)CNc1nc(Nc2ccc(C(=O)N3CCC(N4CCOCC4)CC3)c3c2OCC3)nc2[nH]cc(C(F)(F)F)c12 .
Result: < 100 nM

Request: Quick check: IC50 of CCNc1nc(Nc2ccc(S(=O)(=O)N3CCOCC3)cc2OC)nc2[nH]cc(C(F)(F)F)c12 ?
Result: 301 to 1000 nM

Request: Could you share which IC50 value was measured for CNc1nc(Nc2ccc(S(=O)(=O)N3CCOCC3)cc2OC)nc2[nH]cc(C(F)(F)F)c12 ?
Result: 301 to 1000 nM

* * *

system: human DYRK1A and tau; experiment: Inhibition of tau phosphorylation, ClariCELL Kinase Cell-Based Assay, HEK 293 cells expressing human DYRK1A and tau; details: HEK293, tau phosphorylation, compound 0.5 uM
Think of 50% as a floor: if inhibition at 0.5 µM stands on it or above, it is 1 (yes); beneath it, 0 (no).

// below: answered molecules
line-notation: COc1cc(P2(=O)CCN(C3CCOCC3)CC2)ccc1Nc1nc(NC2CC2)c2c(C(F)(F)F)c[nH]c2n1
class-label: 1 (yes)
//
line-notation: CC(C)Nc1nc(Nc2ccc(C(=O)N3CCC(N4CCOCC4)CC3)c3c2OCC3)nc2[nH]cc(C(F)(F)F)c12
class-label: 1 (yes)
//
line-notation: CCNc1nc(Nc2ccc(C(=O)N3CCN(C4COC4)CC3)c3c2OCCO3)nc2[nH]cc(C(F)(F)F)c12
class-label: 0 (no)
//
line-notation: CCNc1nc(Nc2ccc(P3(=O)CCN(C4CCOCC4)CC3)cc2OC)nc2[nH]cc(C(F)(F)F)c12
class-label: 0 (no)
//
line-notation: COc1cc(S(=O)(=O)N2CCC(N3CCOCC3)CC2)ccc1Nc1nc(C2CC2)c2c(C#N)c[nH]c2n1
class-label: 0 (no)

Request: inhibition at 0.5 µM >= 50% for CCNc1nc(Nc2ccc(C(=O)N3CC[C@H](N4CCOCC4)C3)c3c2OCC3)nc2[nH]cc(C(F)(F)F)c12 ?
Result: 1 (yes)

Request: Quick check, inhibition at 0.5 µM >= 50%? CC[C@H](C)Nc1nc(Nc2ccc(C(=O)N3CCC(N4CCOCC4)CC3)c3c2OCC3)nc2[nH]cc(C#N)c12
Result: 0 (no)

Request: Quick check, inhibition at 0.5 µM >= 50%? COCCNc1nc(Nc2ccc(P3(=O)CCN(C4CCOCC4)CC3)cc2OC)nc2[nH]cc(C(F)(F)F)c12
Result: 0 (no)

* * *

biological target: human GST-DYRK1A (Homo sapiens)
Entries and their IC50 values follow.

Here's what some known entries look like.
line-notation: COc1cc(P2(=O)CCN(C3CC3)CC2)ccc1Nc1nc(NC2CCCCC2)c2c(C#N)c[nH]c2n1
IC50: 0.101 to 0.3 µM

line-notation: COc1cc(P(C)(C)=O)ccc1Nc1nc(NC2CCOCC2)c2c(C(F)(F)F)c[nH]c2n1
IC50: 0.301 to 1 µM

line-notation: CCCCNc1nc(Nc2ccc(S(=O)(=O)N3CCC(N4CCOCC4)CC3)cc2OC)nc2[nH]cc(C#N)c12
IC50: 0.301 to 1 µM

// switching to the query compound
Request: I am curious: what IC50 value has been reported for N#Cc1c[nH]c2nc(Nc3ccc(C(=O)N4CCC(N5CCOCC5)CC4)c4c3OCCO4)nc(NC3CCCCC3)c12 ?
Result: 0.301 to 1 µM
